Recorded values, source ChEMBL document CHEMBL1681638.

Provide the recorded Activity for the entries that follow.
Test system: GT1-7
Procedure Details: Antiprion activity in human transmissible spongiform encephalopathies agent Fukuoka-1 prion infected GT1-7 cells assessed as proteinase K-resistant proteins at 10 uM after 3 days Western blotting analysis relative to control
Format: cell-based
Respond with the bare value in %.

Param request: Activity | system GT1-7 | item `CCCCNCC(=O)Nc1ccc(Cc2ccc(NC(=O)CNCCCC)cc2)cc1`
24

Param request: Activity | system GT1-7 | item `O=C(CN1CC[C@H](F)C1)Nc1ccc(Cc2ccc(NC(=O)CN3CC[C@H](F)C3)cc2)cc1`
112

Param request: Activity | system GT1-7 | item `O=C(CN1CCC[C@@H]1CO)Nc1ccc(Cc2ccc(NC(=O)CN3CCC[C@@H]3CO)cc2)cc1`
75

Param request: Activity | system GT1-7 | item `O=C(CN1CC[C@H](O)C1)Nc1ccc(Cc2ccc(NC(=O)CN3CC[C@H](O)C3)cc2)cc1`
90

Param request: Activity | system GT1-7 | item `O=C(CN1CCCCC1)Nc1ccc(Cc2ccc(NC(=O)CN3CCCCC3)cc2)cc1`
24

Param request: Activity | system GT1-7 | item `O=C(CN1CCCC1)Nc1ccc(Oc2ccc(NC(=O)CN3CCCC3)cc2)cc1`
35

Param request: Activity | system GT1-7 | item `Nc1ccc(Cc2ccc(N)cc2)cc1`
86

Param request: Activity | system GT1-7 | item `O=C(CN1CCCC1)Nc1ccc(NC(=O)CN2CCCC2)cc1`
88

Param request: Activity | system GT1-7 | item `O=C(CN1CCCC1)Nc1cccc2c(NC(=O)CN3CCCC3)cccc12`
110

Param request: Activity | system GT1-7 | item `O=C(CN(C1CCCCC1)C1CCCCC1)Nc1ccc(Cc2ccc(NC(=O)CN(C3CCCCC3)C3CCCCC3)cc2)cc1`
106

* * *

Test system: GT1-7
Procedure Details: Antiprion activity in human transmissible spongiform encephalopathies agent Fukuoka-1 prion infected GT1-7 cells assessed as proteinase K-resistant proteins at 10 uM after 3 days Western blotting analysis relative to control
Format: cell-based
Recorded Metric: Activity

mol=CCN(CC)CC(=O)Nc1ccc(Cc2ccc(NC(=O)CN(CC)CC)cc2)cc1 test_target=GT1-7 recorded_metric=Activity reported_value=23%
mol=O=C(CN1CCCC1)Nc1ccc(Cc2cccc(NC(=O)CN3CCCC3)c2)cc1 test_target=GT1-7 recorded_metric=Activity reported_value=19%
mol=O=C(CN1CCCC1)Nc1cccc(Cc2cccc(NC(=O)CN3CCCC3)c2)c1 test_target=GT1-7 recorded_metric=Activity reported_value=20%
mol=CC(=O)Nc1ccc(Cc2ccc(NC(=O)CN3CCCC3)cc2)cc1 test_target=GT1-7 recorded_metric=Activity reported_value=91%
mol=CN(C)[C@H]1CCN(CC(=O)Nc2ccc(Cc3ccc(NC(=O)CN4CC[C@H](N(C)C)C4)cc3)cc2)C1 test_target=GT1-7 recorded_metric=Activity reported_value=34%
mol=O=C(CN1CCCC1)NCCc1ccc(NC(=O)CN2CCCC2)cc1 test_target=GT1-7 recorded_metric=Activity reported_value=86%

Provide only the value of recorded Activity for `O=C(CN1CCOCC1)Nc1ccc(Cc2ccc(NC(=O)CN3CCOCC3)cc2)cc1`
93%

Provide only the value of recorded Activity for `O=C(CN1CCCC1)Nc1ccc(Cc2ccc(NC(=O)CN3CC[C@@H](O)C3)cc2)cc1`
43%

Provide only the value of recorded Activity for `O=C(CN1CCCC1)Nc1ccc(Cc2ccc(NC(=O)CN3CCC[C@H]3CO)cc2)cc1`
47%
